System: OVCAR-4 ovarian
Assay: NCI tumour cell line growth inhibition, 48 h
quantity-kind: GI50

See these solved cases before continuing.
compound: CC1/C=C/C=C/CC/C=C/C=C/C=C/C=C/C(OC2OC(C)C(O)C(N)C2O)CC2OC(CC(O)C(O)CCC(O)CC(O)CC(O)CC(=O)OC(C)C(C)C1O)CC(O)C2C(=O)O (centres undefined)
observed: 23.9 µg/mL
--
compound: CC(C)(C)[Si](C)(C)OC1[C@@H](O[Si](C)(C)C(C)(C)C)[C@@H](CNC(=O)NC(=O)NC(=O)CI)O[C@H]1n1cnc2c(NC(=O)Nc3ccccc3)ncnc21 (some centres undefined)
observed: 0.665 µM
--
compound: COc1ccc2c(CN3CCC(CO)CC3)cc3cc4c(cc3c2c1)OCO4
observed: 0.438 µM

# context switch: different compound, same GI50
Request: Entry Cc1c(C(=O)N/N=C/c2ccc(O)cc2)nnn1-c1ccnc2c(C(F)(F)F)cccc12 has what GI50?
Result: 5.09 µM

* * *

System: OVCAR-3 ovarian
Assay: NCI tumour cell line growth inhibition, 48 h
quantity-kind: TGI

Request: Which TGI is reported with OVCAR-3 ovarian for this entry: N#Cc1c(Cl)cccc1Oc1ccc(S(=O)(=O)/N=C(\NO)Nc2ccc(Cl)cc2)cc1 ?
Result: 29.2 µM

Request: Please answer likewise for CN(C(=O)C12C3C4C1C1C2C3C41C(=O)O)C(C)(C)C (configuration not stated)
Result: > 100 µM

Request: Please answer likewise for O=c1oc2ccccc2c(Cl)c1Cl
Result: 4.38 µM

Request: Please answer likewise for Cc1cccc(/C=N/NC(=S)NC2CCCCC2)n1
Result: > 29.3 µM

Request: Please answer likewise for Cc1cc(Cl)ccc1NC(=O)/C(Cc1nc2ccc(C(=O)c3ccccc3)cc2[nH]c1=O)=N/NC(=O)c1ccncc1
Result: > 100 µM

Request: Please answer likewise for COc1ccc(/C=C/C(=N/NC(=O)N/N=C(/C=C/c2ccc(OC)cc2)C(C)C)C(C)C)cc1
Result: > 100 µM

Request: Please answer likewise for Cc1ccc(C)c(NC(=O)CC2C(=O)Nc3ccccc3S2(=O)=O)c1 (configuration not stated)
Result: > 100 µM

Request: Please answer likewise for CCOC(=O)NC(OCCN(C)C)(C(F)(F)F)C(F)(F)F
Result: > 100 µM

Request: Please answer likewise for COc1ccc(/C=C(\C#N)n2nnc3cc(Cl)ccc32)cc1
Result: 0.695 µM

Request: Please answer likewise for CC(=O)C(C(=N)C#N)C(=O)Nc1ccccc1 (configuration not stated)
Result: > 100 µM

Request: Please answer likewise for COC1=C(OC)C(=O)c2cc(SC)c(=O)c(SC)cc2C1=O
Result: 23.4 µM

Request: Please answer likewise for CCOC(=O)/C(=C\NC[C@@H](C)O)c1nc2ccccc2[nH]1
Result: > 100 µM

Request: Please answer likewise for CCOC(=O)N(C)CCC1CC=CC(=O)C1c1cccc(OC)c1OC (configuration not stated)
Result: 38.8 µM

Request: Please answer likewise for COc1cc(/C=C2\CC(C)CC3C2=NN(c2ccccc2)C3c2cc(OC)c(OC)c(OC)c2)cc(OC)c1OC (configuration not stated)
Result: > 100 µM

Request: Please answer likewise for N#Cc1c2ccccc2c2nnc3cc(C(F)(F)F)ccc3n12
Result: > 100 µM

Request: Please answer likewise for COc1ccc2c(c1OC)C(Br)CCC(Br)(Br)C2=O (configuration not stated)
Result: 30.2 µM

Request: Please answer likewise for COc1ccc(C[C@H]2NC[C@H](OC(C)=O)[C@H]2OC(C)=O)cc1
Result: 0.85 µM

* * *

Test system: NCI-H460 lung
Experiment: NCI tumour cell line growth inhibition, 48 h
# TGI per entry

compound: Cc1cc2c(c(C=Nc3ccc(N(C)C)cc3)c1)OC1(C=C2)Oc2ccccc2C(=O)N1C (stereo not given)
observed: 36.5 µM

compound: C(=C\c1ccccc1)/Cn1nc(-c2ccccc2)nc1-c1cnccn1
observed: > 100 µM

compound: COc1cccc(/C=C\c2cc(OC)c(OC)c(OC)c2)c1
observed: > 100 µM

Request: Entry COc1ccc(/C=C/C(=N/NC(=O)N/N=C(/C=C/c2ccc(OC)cc2)C(C)C)C(C)C)cc1 has what TGI?
Result: > 100 µM

Request: Please answer likewise for COc1ccc2c(c1)nc1n2C(c2c(F)cccc2F)SC1 (stereo not given)
Result: > 100 µM

Request: Please answer likewise for C=C1C(=O)O[C@H]2[C@H]1CC/C(COC(=O)/C=C/c1cccnc1)=C\CC[C@@]1(C)O[C@@H]21
Result: 20 µM

Request: Please answer likewise for CCOC(=O)NC(Nc1cccc(F)c1)(C(F)(F)F)C(F)(F)F
Result: > 100 µM

Request: Please answer likewise for O=[N+]([O-])c1ccc(OCCNc2cccc3ccccc23)cc1
Result: > 100 µM

Request: Please answer likewise for COc1cccc2c1C(=O)c1c(O)c3c(c(O)c1C2=O)CC(O)(C(C)=O)CC3OC1CC([N+](C)(C)C)C(O)C(C)O1 (stereo not given)
Result: > 100 µM

Request: Please answer likewise for COC(=O)CC(SCCO)SCCO
Result: > 100 µM

* * *

Test system: LOX IMVI melanoma
Assay: NCI tumour cell line growth inhibition, 48 h; in the data active = GI50 below about 0.43 µM; inactive = the rest
Return exactly one item of y = active, n = inactive

Sample answers from the record:
molecule: COc1cccc(-c2nc(-c3ccc(NS(=O)(=O)c4ccccc4)cc3)[nH]c2-c2ccnc(Br)c2)c1
class: n

molecule: O=C(CCl)Nc1ccccc1SCc1cc(Cl)cc2c1OCOC2
class: n

molecule: O=c1oc2ccccc2c(Cl)c1Cl
class: n

molecule: Clc1ccc(N2COOC3(OOC2)C2CC4CC(C2)CC3C4)cc1
class: y

molecule: C[C@@H](Oc1cc(-c2cnn(C3CCNCC3)c2)cnc1N)c1c(Cl)ccc(F)c1Cl
class: n

Request: Query: recorded result category for COc1ccc(/C=C\c2cc(OC)c(OC)c(OC)c2)cc1NC(=O)[C@@H](N)CO in this test
Result: y

Request: Please answer likewise for Cc1ccc2c(/C=C/C(=O)c3cc(CN4CCOCC4)c(O)c4nc(C)ccc34)cc(CN3CCOCC3)c(O)c2n1
Result: n

Request: Please answer likewise for COc1c(O)cc2oc3cc(O)c(CC=C(C)C)c(O)c3c(=O)c2c1C/C=C(\C)CCC=C(C)C
Result: n

Request: Please answer likewise for O=C(CSc1nc2ccc([N+](=O)[O-])cc2[nH]1)Nc1cccc(C(F)(F)F)c1
Result: n

Request: Please answer likewise for CC(C)(C)[Si](C)(C)OC1[C@@H](O[Si](C)(C)C(C)(C)C)[C@@H](CNC(=O)NC(=O)NC(=O)CI)O[C@H]1n1cnc2c(NC(=O)Nc3ccccc3)ncnc21 (stereo not given in full)
Result: y

* * *

Tested on: MCF7 breast
Assay: NCI tumour cell line growth inhibition, 48 h
# TGI per entry

compound: CC1=NN(c2cccc(Cl)c2)C(=N/c2nc3ccccc3s2)/C1=C\c1ccccc1O
TGI: > 100 µM
//
compound: Cc1ccc([N+](=O)[O-])cc1S(=O)(=O)Nc1ccc(C2=NOC(c3ccccc3)C2)cc1 (stereo unspecified)
TGI: 16.5 µM
//
compound: COc1ccc(-n2c(-c3ccc(NC(=O)CCCl)cc3)nnc2-c2cc(OC)c(OC)c(OC)c2)cc1
TGI: > 14.3 µM
//
compound: N#Cc1c(Cl)cccc1Oc1ccc(S(=O)(=O)/N=C(\NO)Nc2ccc(Cl)cc2)cc1
TGI: 46.2 µM
//
compound: CCOC(=O)CCN1C(=O)c2ccc(NC(=O)C(=O)O)cc2S1(=O)=O
TGI: > 100 µM

Request: Entry O=c1oc2ccccc2c(Cl)c1Cl has what TGI?
Result: 10.6 µM

Request: Please answer likewise for CN(C)c1ccc(/C=C(\NC(=O)c2ccccc2)c2nc3ccccc3c(=O)o2)cc1
Result: > 100 µM

Request: Please answer likewise for CS(=O)(=O)c1ccc(Oc2nccc(-c3c(-c4ccc(F)cc4)ncn3C3CCNCC3)n2)cc1
Result: > 25 µM

Request: Please answer likewise for COc1cccc(N2C(=O)CSC2c2c[nH]c3ccccc23)c1 (stereo unspecified)
Result: > 100 µM

Request: Please answer likewise for c1ccc2c(c1)Sc1ccccc1N2CCCN1c2ccccc2Sc2ccccc21
Result: > 100 µM

Request: Please answer likewise for CN(O)C(=O)c1ccc(OCc2cccc(Cl)c2)cc1
Result: > 100 µM

Request: Please answer likewise for CC1(C)C2CC1C(/C=N\OCC(=O)O)=CC2=O (stereo unspecified)
Result: > 100 µM

Request: Please answer likewise for CCCCCCCCCCCCOCCCCCCCCC/C=C/c1ccc2c(c1)OCCOCCOCCOCCO2
Result: 32 µM

Request: Please answer likewise for COc1ccc(/C=C\c2cc(OC)c(OC)c(OC)c2)cc1NC(=O)[C@@H](N)CO
Result: > 100 µM

Request: Please answer likewise for COC(=O)/C=C/COCC1C2CCC(=O)C21 (stereo unspecified)
Result: > 100 µM

Request: Please answer likewise for C=C1C(=O)O[C@H]2[C@H]1CC/C(COC(=O)/C=C/c1cccnc1)=C\CC[C@@]1(C)O[C@@H]21
Result: 2.72 µM

Request: Please answer likewise for O=C(O)C(Cc1ccccc1-c1ccccc1)C(=O)O
Result: > 100 µM

Data credit: PubChem BioAssay (NCI)
